assay: solvent given as SMILES; conditions: in CC#N

compoundStructure: CN(C)c1ccc(C2=Nc3scc(-c4ccc(C#N)cc4)[n+]3[B-](F)(F)O2)cc1
absorption maximum [nm]: 411
//
compoundStructure: COc1ccc(-c2csc(/C(C#N)=C/c3ccc(Cl)cc3Cl)n2)cc1
absorption maximum [nm]: 377
//
compoundStructure: COc1ccc2ncccc2c1
absorption maximum [nm]: 329
//
compoundStructure: Nc1ccc(/C=C/c2cccnc2)cc1
absorption maximum [nm]: 342
//
compoundStructure: CCCCCCc1ccc2c3c(ccc2c1)O[B-](c1ccccc1)(c1ccccc1)[N+](c1cc([N+]2=Cc4c(ccc5cc(CCCCCC)ccc45)O[B-]2(c2ccccc2)c2ccccc2)cc([N+]2=Cc4c(ccc5cc(CCCCCC)ccc45)O[B-]2(c2ccccc2)c2ccccc2)c1)=C3
absorption maximum [nm]: 440
//
compoundStructure: c1ccc2c(c1)[nH]c1ncccc12
absorption maximum [nm]: 338
//
compoundStructure: O=S(=O)(c1ccc(-c2ccc(-c3nc4c5ccccc5c5ccccc5c4n3-c3ccccc3)cc2)cc1)c1ccc(-c2ccc(-c3nc4c5ccccc5c5ccccc5c4n3-c3ccccc3)cc2)cc1
absorption maximum [nm]: 368
//
compoundStructure: CCCCCCOc1ccc(-c2cnc(-c3nnc(-c4ccc(OCCCCCC)cc4)o3)o2)cc1
absorption maximum [nm]: 320
//
compoundStructure: CCC1(CC)c2cc(C=C(C#N)C#N)ccc2-c2ccc(N(C)C)cc21
absorption maximum [nm]: 474

---

In this section we review reported absorption maximum values for a set of compounds.
experiment: solvent given as SMILES; conditions: in Cc1ccccc1
quantityMeasured: absorption maximum (nm)

compound: O=S(=O)(c1cccc(N2c3ccccc3Oc3ccccc32)c1)c1cccc(N2c3ccccc3Oc3ccccc32)c1
quantityMeasured: absorption maximum
value: 308

compound: Cc1ccc(N2C(c3ccccc3[NH-])=[NH+]C(c3ccccc3)C2c2ccccc2)cc1 (stereo not drawn)
quantityMeasured: absorption maximum
value: 328

compound: c1ccc(-c2nc(-c3ccccc3)nc(-c3cc(-n4c5ccccc5c5ncccc54)c(-n4c5ccccc5c5ccccc54)c(-n4c5ccccc5c5ncccc54)c3)n2)cc1
quantityMeasured: absorption maximum
value: 376.56

compound: COCCC1=Cc2nc1ccc1[nH]c(cc1CCOC)c1nc(c(OC(C)=O)cc3[nH]c2cc3CCOC)C(CCOC)=C1
quantityMeasured: absorption maximum
value: 647

compound: F[B-]1(F)n2c(c3cccc4cccc2c43)=Nc2cccc(Cl)[n+]21
quantityMeasured: absorption maximum
value: 481

compound: c1cc2ccc3cccc4ccc(c1)c2c34
quantityMeasured: absorption maximum
value: 362

compound: O=C1c2ccc(N(c3ccccc3)c3ccccc3)cc2C(=O)c2ccc(N(c3ccccc3)c3ccccc3)cc21
quantityMeasured: absorption maximum
value: 449

compound: CCCCOC(=O)c1cc(Oc2ccc(C(C)(C)C)cc2)c2c3c(Cl)cc4c5c(cc(Cl)c(c6c(Oc7ccc(C(C)(C)C)cc7)cc(C(=O)OCCCC)c1c26)c53)C(=O)N(c1c(C(C)C)cccc1C(C)C)C4=O
quantityMeasured: absorption maximum
value: 529

compound: c1ccc2c(c1)ccc1ccccc12
quantityMeasured: absorption maximum
value: 295

compound: c1ccc(N(c2ccccc2)c2ccc3c(ccc4nc5ccc6cc(N(c7ccccc7)c7ccccc7)ccc6c5nc43)c2)cc1
quantityMeasured: absorption maximum
value: 473

compound: COc1ccc(-c2cc(C)nc(-c3ccc(-n4c5ccccc5c5ccccc54)cc3)n2)cc1
quantityMeasured: absorption maximum
value: 341

compound: CCN(CC)c1ccc(OC)c(C=O)c1
quantityMeasured: absorption maximum
value: 411

compound: CC(=O)c1ccc(/N=N/c2ccc(Nc3ccccc3)cc2)cc1
quantityMeasured: absorption maximum
value: 429

---

experiment: solvent given as SMILES; details: in ClCCl
Everything with absorption maximum lower than 400 nm is Not fulfilled; everything else, including exactly 400 nm, is Fulfilled.

compoundStructure: COc1ccc(-c2cc3c(ccc4sc5ccc6sc(-c7ccc(C(C)=O)cc7)cc6c5c43)s2)cc1
cat: Not fulfilled
--
compoundStructure: FC(F)(F)C(F)(F)C(F)(F)C(F)(F)C(F)(F)C(F)(F)C(F)(F)C(F)(F)CCOc1nnc(Cl)nn1
cat: Fulfilled
--
compoundStructure: COc1ccc(N(c2ccc(OC)cc2)c2ccc(-c3ccc4c(c3)C(=O)c3ccccc3C4=O)cc2)cc1
cat: Fulfilled
--
compoundStructure: Oc1cccc(/N=C/c2ccccc2Oc2ccccc2)c1
cat: Not fulfilled
--
compoundStructure: CCn1c2ccccc2c2cc(-c3cc(-c4ccc5c(c4)c4ccccc4n5CC)nc(OC)n3)ccc21
cat: Not fulfilled
--
compoundStructure: O=C1/C(=C\c2ccc(N(c3ccccc3)c3ccccc3)cc2)S(=O)(=O)c2ccccc21
cat: Fulfilled
--
compoundStructure: CC(C)[Si]1(C(C)C)c2ccccc2-c2ccc(N(C)C)cc21
cat: Not fulfilled

---

assay: solvent given as SMILES; conditions: in CC1CCCO1

compound: O=c1cc2cc(O)c3cccc4ccc(o1)c2c43
absorption maximum, nm: 469
--
compound: Cn1c2nc(=O)[nH]c(=O)c-2nc2ccccc21
absorption maximum, nm: 459
--
compound: CN(C)c1ccc(C#Cc2ccccc2)cc1
absorption maximum, nm: 327.1
--
compound: COC(=O)C(Cc1ccc2oc(-c3ccc4c(c3)c3ccccc3n4-c3ccccc3)nc2c1)NC(=O)OC(C)(C)C (configuration not stated)
absorption maximum, nm: 326.9
--
compound: CCCCCCOc1cc2cc(=O)oc3ccc4cccc1c4c23
absorption maximum, nm: 460
--
compound: CC1=CC(C)=[N+]2C1=C(c1ccc(C)cc1)c1c(C)cc(/C=C/c3ccc4ccc5cccc6ccc3c4c56)n1[B-]2(F)F
absorption maximum, nm: 598
--
compound: O=c1cc2cc(O)c3cc(O)cc4ccc(o1)c2c43
absorption maximum, nm: 476

---

experiment: solvent given as SMILES; details: in ClC(Cl)Cl
# binarize absorption maximum: threshold 400 nm inclusive, high side true (1), low side false (0)

molecule: CN1C(=CC2=C([S-])C(=Cc3sc4ccccc4[n+]3C)C2=O)C(C)(C)c2ccccc21
cat: true (1)

molecule: Cc1cccc(C2=Cc3c4ccccc4c4ccccc4[n+]3[B-](F)(F)O2)c1
cat: true (1)

molecule: Cc1cccc2cc3c(=O)n(C)c(=O)n(C)c3nc12
cat: false (0)

molecule: O=P1(c2ccccc2)C(c2ccc(N(c3ccccc3)c3ccccc3)cc2)=Cc2cc3ccccc3cc21 (centres undefined)
cat: true (1)

molecule: COC(=O)C(Cc1ccc2oc(-c3ccc4c(c3)c3ccccc3n4-c3ccccc3)nc2c1)NC(=O)OC(C)(C)C (centres undefined)
cat: false (0)

molecule: CCCCCCN1C(=O)c2cccc3cc(/N=C\c4nc5ccccc5s4)cc(c23)C1=O
cat: false (0)

molecule: CCCCCCCC(=O)Oc1ccc2c3cccc4c(OC(=O)CCCCCCC)ccc(c5cccc1c52)c43
cat: true (1)

---

assay: solvent given as SMILES; conditions: in C1CCOC1

compound: c1ccc(N(c2ccccc2)c2ccc3c(ccc4nc5ccc6cc(N(c7ccccc7)c7ccccc7)ccc6c5nc43)c2)cc1
absorption maximum (nm): 474

compound: OC1(c2ccc(-c3cccs3)s2)CCC(c2ccccc2)CC1 (centres undefined)
absorption maximum (nm): 313

compound: CC1=[N+]2C(=C(c3ccc(C(=C(c4ccccc4)c4ccccc4)c4ccccc4)cc3)c3ccc(C)n3[B-]2(F)F)C=C1
absorption maximum (nm): 511

compound: CC(=O)O[B-]1(OC(C)=O)OC(/C=C/C=C/c2ccccc2)=CC(/C=C/C=C/c2ccccc2)=[O+]1
absorption maximum (nm): 468

---

test: solvent given as SMILES; settings: in ClC(Cl)Cl
Label Yes when absorption maximum is strictly below 400 nm; at or above that, label No.

compoundStructure: CCCC1(CCC)c2cc(C=C(C#Cc3ccccc3)C#Cc3ccccc3)ccc2-c2ccc(C=C(C#Cc3ccccc3)C#Cc3ccccc3)cc21
cat: No
--
compoundStructure: N#CC1=CC(c2ccccc2)=CC(C#N)=P1(c1ccccc1)c1ccccc1
cat: No
--
compoundStructure: C(=C\c1ccc(/C=C/c2ccc(N(c3ccccc3)c3ccccc3)cc2)c2nsnc12)/c1ccc(N(c2ccccc2)c2ccccc2)cc1
cat: No
--
compoundStructure: CN(C)c1ccc(C2=Cc3cccc[n+]3[B-](F)(F)O2)cc1
cat: No
--
compoundStructure: CCc1ccc(/C=N/c2cc(C(C)C)c(O)cc2C)cc1
cat: Yes

---

The molecules listed here are annotated with their absorption maximum.
assay: solvent given as SMILES; conditions: in CO

molecule: CCOC(=O)COc1ccc(C(c2c(C)[nH]c3ccccc23)c2c(C)[nH]c3ccccc23)cc1
unitAbbrev: nm
absorption maximum: 290

molecule: Oc1cccc(/N=C/c2ccccc2Oc2ccccc2)c1
unitAbbrev: nm
absorption maximum: 328

molecule: Cc1nc2c(ccc3c2sc(/C=C/c2cc4c5c(c2)CCCN5CCC4)[n+]3C)s1
unitAbbrev: nm
absorption maximum: 574

molecule: COC(=O)c1nc2c(N)nc(N(C)C)nc2n1Cc1ccccc1
unitAbbrev: nm
absorption maximum: 345

molecule: COc1nc(Nc2ccc3ccc4cccc5ccc2c3c45)nc(OC)n1
unitAbbrev: nm
absorption maximum: 340

molecule: CN(C)c1ccc(/C=C/C=C/c2nc3ccccc3o2)cc1
unitAbbrev: nm
absorption maximum: 417

molecule: Cc1cc(O)c(C(C)C)cc1/N=C/c1ccc([N+](=O)[O-])cc1
unitAbbrev: nm
absorption maximum: 399

molecule: C(=C\c1nc2ccccc2o1)/c1ccccc1
unitAbbrev: nm
absorption maximum: 320

molecule: CCCCc1ccc2ccc3cccc4ccc1c2c34
unitAbbrev: nm
absorption maximum: 338

molecule: NS(=O)(=O)c1ccc(N2N=C(c3ccc(O)cc3)CC2c2ccccc2)cc1 (stereo unspecified)
unitAbbrev: nm
absorption maximum: 357

molecule: Cc1ccc(C2=[N+]3C(=Cc4c(C)cc(C)n4[B-]3(F)F)c3ccccc32)[nH]1
unitAbbrev: nm
absorption maximum: 602

molecule: O=Cc1ccc(C2=C3C=c4c(oc5ccccc45)=[N+]3[B-](F)(F)n3c2cc2c4ccccc4oc23)cc1
unitAbbrev: nm
absorption maximum: 583

molecule: CCC1=C(C)c2cc3c(OC)cc(OC)cc3c(=O)n2C1=O
unitAbbrev: nm
absorption maximum: 433

molecule: N#CSC1=CC2=C(c3ccccc3)c3cc(SC#N)c(N4CCOCC4)n3[B-](F)(F)[N+]2=C1N1CCOCC1
unitAbbrev: nm
absorption maximum: 585

molecule: c1ccc(N(c2ccccc2)c2ccc(-c3cnc(-c4ccncc4)s3)cc2)cc1
unitAbbrev: nm
absorption maximum: 403

molecule: CC1(C)CCc2c(c3ccccc3c3nc4ccccc4nc23)O1
unitAbbrev: nm
absorption maximum: 434.97

molecule: CCC1=C(C)C(=O)n2c1cc1c(c(C)c(C(=O)OCC(C)C)n1CC(C)C)c2=O
unitAbbrev: nm
absorption maximum: 397

molecule: F[B-]1(F)n2cccc2C=C2C=CC=[N+]21
unitAbbrev: nm
absorption maximum: 497

molecule: COC(=O)C(Cc1ccc2oc(-c3ccc(N(c4ccccc4)c4ccccc4)cc3)nc2c1)NC(=O)OC(C)(C)C (stereo unspecified)
unitAbbrev: nm
absorption maximum: 365.05

molecule: O=c1[nH]c(=O)n([C@@H]2O[C@H](CO)[C@@H](O)[C@H]2O)cc1-c1cc2ccccc2s1
unitAbbrev: nm
absorption maximum: 321

molecule: Cn1c(=O)c(/N=N/c2cc(S(=O)(=O)O)ccc2C(=O)O)c(O)c2ccccc21
unitAbbrev: nm
absorption maximum: 406
